Where do the numbers come from? From PubChem BioAssay (NCI).

- Test system: COLO 205 colon
- ASSAY_OVERVIEW: NCI-60 one-dose screen, 48 h (100 = growth as untreated, 0 = no growth, -100 = all killed)
- CONDITIONS: 10 µM unless noted
About 83,000 compounds went through this panel and 20% of them were active in at least one assay; those are over-represented in the sample as a whole.

[
  {
    "COMPOUND": "C#CCCCNCCNc1ccnc2cc(Cl)ccc12",
    "TARGET_OR_SYSTEM": "COLO 205 colon",
    "UNIT": "%",
    "growth": 10.7
  },
  {
    "COMPOUND": "COc1ccc(C(=O)/C=C/c2ccc3c(c2)OCCO3)cc1S(N)(=O)=O",
    "TARGET_OR_SYSTEM": "COLO 205 colon",
    "UNIT": "%",
    "growth": 91.9
  },
  {
    "COMPOUND": "O=C(CSc1nnc(-c2ccc(-c3nc4ccc(Cl)cc4[nH]3)cc2)o1)Nc1ccc(Br)cc1",
    "TARGET_OR_SYSTEM": "COLO 205 colon",
    "UNIT": "%",
    "growth": 94.1
  },
  {
    "COMPOUND": "Cn1cc(-c2cc(N)n3nc(-c4c[nH]c5ccc(Cl)cc45)cc3n2)c2cccnc21",
    "TARGET_OR_SYSTEM": "COLO 205 colon",
    "UNIT": "%",
    "growth": -83.1
  },
  {
    "COMPOUND": "CCCCNc1ccc2c3c(cccc13)C(=O)N(c1cccc(-c3nn(-c4ccccc4)cc3-c3nc4ccccc4s3)c1)C2=O",
    "TARGET_OR_SYSTEM": "COLO 205 colon",
    "UNIT": "%",
    "growth": 109
  },
  {
    "COMPOUND": "Oc1ccc(Cl)c(Nc2nc(SCCN3CCOCC3)nc3c2cnn3CC(Cl)c2ccc(Br)cc2)c1 (stereo not drawn)",
    "TARGET_OR_SYSTEM": "COLO 205 colon",
    "UNIT": "%",
    "growth": 106
  },
  {
    "COMPOUND": "COc1cc(NC(=O)C(C)C)ccc1C(=O)NC(=S)Nc1ccc(S(N)(=O)=O)cc1",
    "TARGET_OR_SYSTEM": "COLO 205 colon",
    "UNIT": "%",
    "growth": 118
  },
  {
    "COMPOUND": "COc1cc2cc(C(=O)N3C[C@@H](CCl)c4c3cc(OC(=O)N(CCC(=O)N3CCN(C)CC3)C3CCCCC3)c3ccccc43)[nH]c2c(OC)c1OC",
    "TARGET_OR_SYSTEM": "COLO 205 colon",
    "UNIT": "%",
    "growth": -66.7
  },
  {
    "COMPOUND": "Cc1nn(-c2ccccc2)c2nc(C)n(CC(=O)N/N=C/c3cccc([N+](=O)[O-])c3)c(=O)c12",
    "TARGET_OR_SYSTEM": "COLO 205 colon",
    "UNIT": "%",
    "growth": 120
  },
  {
    "COMPOUND": "O=C(NNC(=O)c1ccc(OCc2nc3ccc(Cl)cc3[nH]2)cc1)Nc1ccc(Cl)c(C(F)(F)F)c1",
    "TARGET_OR_SYSTEM": "COLO 205 colon",
    "UNIT": "%",
    "growth": 85.6
  },
  {
    "COMPOUND": "CCOc1ccccc1[C@H]1C(C(=O)c2ccc(Cl)cc2)C2(N[C@@H]1c1ccccc1)C(=O)Nc1ccc(Cl)cc12 (stereo partly drawn)",
    "TARGET_OR_SYSTEM": "COLO 205 colon",
    "UNIT": "%",
    "growth": 15.3
  },
  {
    "COMPOUND": "Cc1oc(-c2ccccc2)nc1CN[C@@H]1C[C@@H]2C[C@H]([C@H]1C)C2(C)C",
    "TARGET_OR_SYSTEM": "COLO 205 colon",
    "UNIT": "%",
    "growth": -69.3
  },
  {
    "COMPOUND": "COc1ccccc1Nc1nnc(-c2c[nH]c3ccccc23)o1",
    "TARGET_OR_SYSTEM": "COLO 205 colon",
    "UNIT": "%",
    "growth": -38.8
  },
  {
    "COMPOUND": "O=C(N/N=C/c1ccc(-c2cccc([N+](=O)[O-])c2)s1)c1[nH]c2ccc(Br)cc2c1-c1ccccc1",
    "TARGET_OR_SYSTEM": "COLO 205 colon",
    "UNIT": "%",
    "growth": 97.7
  },
  {
    "COMPOUND": "CC(C)C[C@H](NC(=O)[C@@H]1CCCCCCCCCCC(=O)N[C@@H](CC(=O)N2CCC[C@@H]2C2CCCC2)C(=O)N1)B(O)O",
    "TARGET_OR_SYSTEM": "COLO 205 colon",
    "UNIT": "%",
    "growth": -64.6
  },
  {
    "COMPOUND": "Cc1ccc(O)cc1Nc1nc(SCCN2CCOCC2)nc2c1cnn2CC(Cl)c1ccc(Br)cc1 (stereo not drawn)",
    "TARGET_OR_SYSTEM": "COLO 205 colon",
    "UNIT": "%",
    "growth": 85.9
  },
  {
    "COMPOUND": "COc1ccccc1NC(=O)N/N=C/c1c[nH]c2ccccc12",
    "TARGET_OR_SYSTEM": "COLO 205 colon",
    "UNIT": "%",
    "growth": 4.3
  },
  {
    "COMPOUND": "FC(F)(F)c1cc2c(Cl)ncnc2n1CCN1CCOCC1",
    "TARGET_OR_SYSTEM": "COLO 205 colon",
    "UNIT": "%",
    "growth": 79.5
  }
]
